Listed here are molecules together with their documented Emax.
measured on: 5-hydroxytryptamine receptor 1A (Homo sapiens)
test protocol: Agonist activity at human 5HT1A receptor expressed in HEK293 cell membranes assessed as maximal inhibition of forskolin induced cAMP production incubated for 24 hrs followed by forskolin addition by HTRF assay relative to control
Type: functional, cell-based
Number only, in %; omit the unit.

NCCc1c[nH]c2ccc(C(N)=O)cc12 :: 95
C1=C(c2c[nH]c3ccccc23)CCN(Cc2cccs2)C1 :: 67
C1=C(c2c[nH]c3ccccc23)CCN(Cc2ccccc2)C1 :: 89

Now for a further molecule.
Record COc1cccc(CN2CC=C(c3c[nH]c4ccccc34)CC2)c1 ; system 5-hydroxytryptamine receptor 1A (Homo sapiens); Emax = 76
